target: full-length HAQ STING (Homo sapiens, UniProt Q86WV6, G230A/H232R/R293Q/R71H); construct: AviTag (after GG linker) (C); HRV3C cleavage site (after GS linker) (C); HIS8 (C); made in house; host or cells: Trichoplusia ni (Hi-Five) insect cells infected with baculovirus (virus generated and amplified in Sf21 cells); used as a washed membrane preparation; experiment: 3H-cGAMP filtration binding assay (HAQ STING); conditions: competition with tritiated cGAMP, HAQ STING membrane
Sequence (Q86WV6 with tags, fused parts or gaps R71H/G230A/H232R/R293Q): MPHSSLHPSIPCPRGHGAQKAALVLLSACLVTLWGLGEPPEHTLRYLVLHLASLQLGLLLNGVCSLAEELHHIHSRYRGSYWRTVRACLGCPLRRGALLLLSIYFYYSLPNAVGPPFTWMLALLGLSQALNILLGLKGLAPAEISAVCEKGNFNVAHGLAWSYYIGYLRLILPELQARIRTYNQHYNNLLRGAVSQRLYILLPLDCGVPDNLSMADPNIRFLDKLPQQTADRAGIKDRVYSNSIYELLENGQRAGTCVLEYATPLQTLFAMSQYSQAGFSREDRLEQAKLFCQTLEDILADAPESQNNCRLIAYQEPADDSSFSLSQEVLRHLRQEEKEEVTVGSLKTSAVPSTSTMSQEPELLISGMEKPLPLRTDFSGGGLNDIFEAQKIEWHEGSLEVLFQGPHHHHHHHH
QUANTITY_NAME: EC50 (nM)

Solved cases below.
| MOLECULE | ENDPOINT_UNIT | EC50 |
| --- | --- | --- |
| COc1cc2sc(C(=O)CCC(=O)O)cc2cc1CCCOc1c(OC)cc2sc(C(=O)[C@@H]3C[C@H]3C(=O)O)cc2c1F (relative stereo) | nM | 360 |
| COc1cc2sc(C(=O)CCC(=O)O)cc2cc1CCCc1cc2cc(C(=O)CCC(=O)O)sc2cc1OC | nM | 6 |
| COc1cc2sc(C(=O)C[C@H](C)C(=O)O)cc2c(F)c1OCCCOc1c(OC)cc2sc(C(=O)[C@@H]3C[C@H]3C(=O)O)cc2c1F | nM | 1 |
| COc1cc2sc(C(=O)C[C@H](C)C(=O)O)cc2c(F)c1CCCOc1c(OC)cc2sc(C(=O)CCC(=O)O)cc2c1F | nM | 1 |
| COc1cc2sc(C(=O)C[C@H](C)C(=O)O)cc2cc1OCCCOc1c(OC)cc2sc(C(=O)[C@@H]3C[C@H]3C(=O)O)cc2c1F | nM | 2 |
| COc1cc2sc(C(=O)C[C@H](C)C(=O)O)cc2c(F)c1OCC(C)(C)COc1c(OC)cc2sc(C(=O)C[C@H](C)C(=O)O)cc2c1F | nM | 75 |

[a] COc1cc2cc(C(=O)C[C@H](C)C(=O)O)sc2cc1OCCCOc1c(OC)cc2sc(C(=O)C[C@H](C)C(=O)O)cc2c1F
[b] COc1cc2sc(C(=O)CCC(=O)O)cc2cc1OCCOc1nc2cc(C(=O)C[C@H](C)C(=O)O)sc2cc1OC
[c] COc1cc2sc(C(=O)C[C@H](C)C(=O)O)cc2c(Br)c1OCCCOc1c(OC)cc2sc(C(=O)C[C@H](C)C(=O)O)cc2c1Br
Number of molecules to sort: 3. Sort criterion: EC50, ascending. Enter labels, ranked according to the request.
a, c, b

[1] COc1cc2sc(C(=O)C[C@H](C)C(=O)O)cc2c(F)c1OCCCOc1cc2cc(C(=O)C[C@H](C)C(=O)O)sc2cc1O
[2] COc1cc2sc(C(=O)C[C@H](C)C(=O)O)cc2cc1OCCOc1cc2sc(C(=O)C[C@H](C)C(=O)O)cc2cc1OC (racemic)
[3] COc1cc2sc(C(=O)CCC(=O)O)cc2c(F)c1OCCCOc1c(OC)cc2sc(C(=O)CCC(=O)O)cc2c1F
[4] COc1cc2sc(C(=O)C[C@H](C)C(=O)O)cc2cc1CCNc1cc2cc(C(=O)C[C@H](C)C(=O)O)sc2cc1OC
Order the records by EC50, with each subsequent value no larger than the one before. A ranking is expressed here by listing the labels in the requested order.
2, 4, 3, 1

[A] COc1cc2sc(C(=O)C[C@H](C)C(=O)O)cc2cc1OCCCOc1c(OC)cc2sc(C(=O)[C@@H]3CC[C@H]3C(=O)O)cc2c1F
[B] COc1cc2sc(C(=O)C[C@H](C)C(=O)O)cc2c(F)c1OCCCOc1cc2sc(C(=O)[C@@H]3CC[C@H]3C(=O)O)cc2c(F)c1OC (single isomer, unassigned) [Example 96]
[C] COc1cc2sc(C(=O)C[C@H](C)C(=O)O)cc2cc1OCCCc1nc2cc(C(=O)CCC(=O)O)sc2cc1OC
Task field, ranking: reported EC50, descending order. Enter labels, ranked according to the request.
C, B, A

[P] COc1cc2sc(C(=O)C[C@H](C)C(=O)O)cc2cc1CCCOc1c(OC)cc2sc(C(=O)C[C@H](C)C(=O)O)cc2c1F
[Q] COc1cc2sc(C(=O)C[C@H](C)C(=O)O)cc2c(F)c1OCC1(COc2c(OC)cc3sc(C(=O)C[C@H](C)C(=O)O)cc3c2F)CC1
Of P and Q , whose reported EC50 is numerically smaller? Bench note: the answer is the label of the chosen record.
P

The origin of these recorded values is patent US10793557B2.
